Value source: PubChem BioAssay (NCI)

Provide the reported growth inhibition of each item.
- Assay method text: NCI Yeast Anticancer Drug Screen. Data for the rad50 strain (AID 155);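 note: 0% = growth of vehicle-only cultures of the same strain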
- Cond: S. cerevisiae rad50 strain growth inhibition; at 3.7 µM; stronger effect = higher value
Compounds without any hit were thinned out: in the full panel of roughly 79,000, 15% have a hit.
The answer is to be given in %; state only the numeric part.

Name the reported growth inhibition value associated with the compound "O=[N+]([O-])C(=C(Sc1ccccc1)Sc1ccccc1)C(Cl)=C(Cl)Cl" 8

Quick check: growth inhibition of COc1cc(C2c3cc4c(cc3OC(Nc3ccccc3)C2C)OCO4)cc(OC)c1O (stereo not given) ? 2

# growth inhibition lookup, item "Fc1ccc(NC(=S)SCc2ccc3c(c2)OCO3)cc1F" 22

Give its growth inhibition value. Item: "O=C1C=CC(=O)N1c1ccc2c(c1)Cc1cc(NC(=O)C(F)(F)F)ccc1-2" 24

What growth inhibition value was documented for this compound, "NC(=NCc1ccccc1)N/N=C\c1ccnc2ccccc12" ? 2

Requested field: growth inhibition. Item: "O=C1c2ccccc2C(=O)c2c(NC3CCCCC3)ccc(Nc3ccc(S(=O)(=O)O)cc3)c21" -2

State the recorded growth inhibition for this entry: "CC(=O)Nc1ccc2c(c1)C(=Nc1ccc(C(=O)O)cc1)c1ccccc1-2" 0

Data request, read-out growth inhibition, for "Cc1c(C2=C(Br)C(=O)N(C)C2=O)c(=O)n(C)c(=O)n1C" 15

Entry CCCCCCCCCCCCCCCCCCOCC(O)COP(=O)(O)OCC1OC(n2cc(F)c(=O)[nH]c2=O)CC1O (stereo not given) has what growth inhibition? -10

Which growth inhibition is reported for this compound? "CCN(CC)CC[n+]1ccc2c(C)c3[nH]c4ccc(O)cc4c3c(C)c2c1" 42

###

- Assay method text: NCI Yeast Anticancer Drug Screen. Data for the CLN2oe strain (AID 163);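 note: 0% = growth of vehicle-only control cultures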
- Cond: S. cerevisiae CLN2oe strain, at 1.2 µM, stronger effect = higher value
This is part of a sample that, as a whole, favours compounds with a hit. Of some 79,000 tested, about 15% had one in any assay.
Readout type: growth inhibition (%)
# value in %; strip the unit string

Which growth inhibition is listed for "CCOC(=O)c1cnc2cc(C(F)(F)F)ccc2c1N=[N+]=[N-]" ? 11

# get_value(readout='growth inhibition', item= "CC1CCN(CCC(=O)c2ccc(Cl)cc2)CC1" ) 8

I'd like to know its growth inhibition. The compound in question is "CC1(C)[C@@H]2CC[C@]1(C)[C@H](OC(=O)CSC#N)C2" -3

What value of growth inhibition has been reported for the following compound? "Cc1ccc(-c2ccc(Nc3c4ccccc4nc4ccccc34)cc2)cn1" 15

For the compound shown here, "CCC(=O)Oc1c(Cl)cc(Cl)c2ccccc12" , give the reported growth inhibition. -5

# growth inhibition lookup, item OC1CCCc2c1cc1ccc3cccc4ccc2c1c34 (configuration not stated) -9

Would you kindly share the measured growth inhibition for "O=C1c2ccccc2-c2nc3ccccc3nc21" ? -38

Returns the measured growth inhibition for the input compound. Input: O=C(c1ccc(Cl)cc1)C1OC12C(=O)Nc1ccccc12 (configuration not stated) 5

For N#Cc1ccc(C2NN=CC23C(=O)c2ccccc2OC3c2ccccc2)cc1 (configuration not stated) , what is its reported growth inhibition? -2

Looking for the measured growth inhibition of "O=C1c2cc([N+](=O)[O-])ccc2-c2cccc(F)c21" , can you help? -2

Query (compound): "CC(=O)N/N=C/C(C)(C)C(C)(C)/C=N/NC(C)=O" ; field requested: growth inhibition 9

I would be grateful if you could share the reported growth inhibition for "CCN(CC)[P+](c1ccccc1O)(N(CC)CC)N(CC)CC" . -56

###

- Assay method text: NCI Yeast Anticancer Drug Screen. Data for the mgt1 strain (AID 153)
- Cond: S. cerevisiae mgt1 mutant growth inhibition; at 11.0 µM
Compounds without any hit were thinned out: in the full panel of roughly 79,000, 15% have a hit. Active and inactive are the calls of the source. No stated cut-off is given here; in the data, active means growth inhibition above about 70%; inactive means the rest.
Respond only with the outcome that fits, drawn from active, inactive

Which outcome did this test record for the compound O=C(O)C1OC1(c1cccc(Cl)c1)c1ccccc1Cl (centres undefined) ? inactive

What did the test return for O=[N+]([O-])c1ccc2c(c1)C(N1CCN(CCO)CC1)Cc1ccc(F)cc1S2 (centres undefined) ? inactive

Per the records of this test, what outcome belongs to "CCOC(=O)c1cc([N+](=O)[O-])cc([N+](=O)[O-])c1Sc1ncnc2nc[nH]c12" ? inactive

Can you look up the reported call for "Cc1cc(S(=O)(=O)/N=C(/NN)NNc2cccc(C(F)(F)F)n2)c(S)cc1Cl" for me? inactive

Fill in: this test's call for "CC(C)/C(Cl)=N\OC(=O)Nc1ccc(F)cc1" is ___ inactive

Write down the call the test reported for this compound. Item: CNC1C(OC2C(OC3C(O)C(O)C(N=C(N)N)C(O)C3N=C(N)N)OC(C)C2(O)CO)OC(CO)C(O)C1O (centres undefined) inactive

Outcome logged for "CC1(C)[C@@H]2CC[C@]1(C)[C@H](OC(=O)CSC#N)C2" in this assay: inactive

Could you kindly confirm the outcome this assay logged for "S=C(N/N=C(/c1ccccc1)c1ccccn1)N1CCCCCC1" ? inactive

Could you please tell me the result logged for COC1=CC(=O)C(C2(OC(C)C)OC(=O)C(Cl)=C2Cl)=CC1=O (centres undefined) in this assay? active

For "Cc1ccc(S/N=C\c2ccccc2O)cc1" , what call appears in the results of this test? inactive

What outcome does the record of this test show for "CCOc1ccc2c(c1)c(CC(=O)O)cn2C" ? inactive

Hello, I am checking results. What call was entered for "O=C1C(Nc2ccccc2)=C(Oc2ccccc2)C(=O)c2ccccc21" ? inactive

What classification did "Cc1nc(-[n+]2nc(-c3ccncc3)nn2-c2ccccc2)sc1C" end up with in this test? inactive

Tell me the recorded outcome of this test for "O=C1C=CC(=O)c2c(O)c(Nc3ccc(OC(F)(F)F)cc3)c(Cl)c(O)c21" . inactive

Recorded call for "CC(=O)Nc1ccc2c(c1)C(=Nc1ccc(C(=O)O)cc1)c1ccccc1-2" ? inactive

I would be grateful if you could indicate the recorded call for "Cc1ccc(CSC(N)=Nc2ccccc2)cc1C" . inactive

Which outcome was assigned to "CC(=O)OCc1ccc(O)c(C=O)c1" in this test? inactive

Hey, what did the test say about "S=C(S)NN1CCOCC1" ? inactive

Tell me the recorded outcome of this test for "Cc1ccc2ccc(O)cc2c1" . inactive

What classification did "CC(=O)N/N=C/C(C)(C)C(C)(C)/C=N/NC(C)=O" end up with in this test? inactive

Test call, this compound: "O=C(c1ccc(Cl)cc1Cl)C(Cl)Cl" inactive

Write down the call the test reported for this compound. Item: O=C1OC(CCl)CN1/N=C/c1ccc([N+](=O)[O-])o1 (centres undefined) inactive

Hi, do you know how "Cc1ccc(N)c(S)c1" came out in this test? inactive

Test call for this compound, please: O=C(OCCN1CCCCCC1)C(c1ccsc1)C1CCCCC1 (centres undefined) inactive

###

- Assay method text: NCI Yeast Anticancer Drug Screen. Data for the rad50EPP+ strain (AID 151);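 note: 0% = growth of vehicle-treated control cultures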
- Cond: S. cerevisiae rad50 mutant strain, at 33.0 µM
This is part of a sample that, as a whole, favours compounds with a hit. Of some 79,000 tested, about 15% had one in any assay. Calls of active or inactive are those of the source. No stated cut-off is given here; in the data, active means growth inhibition above about 70%; inactive means the rest.
Select the correct class. Options are active, inactive and nothing else.

Fill in: this test's call for "COc1ccc(/C=C2\SC(=S)N(/C=C/c3nc4ccccc4[nH]c3=O)C2=O)cc1OC" is ___ inactive

So what was the verdict on "COc1ccc2c(c1)C(=O)c1ccccc1C2" in this test? inactive

How did this test come out for "Nc1nc(-c2cccnc2)cc(-c2cc(-c3cccnc3)nc(N)n2)n1" ? inactive

Check the results log: what was the call for "O=Nc1c(NO)ccc2nn(-c3ccccc3)nc12" ? inactive

Any idea what this test logged for "N#CN1C2CCC1CC(=O)C2" ? inactive

Look up the recorded call for "CCCCc1cc(O)ccc1O" in this test. active

Outcome logged for "CC1CCN(CCC(=O)c2ccc(Cl)cc2)CC1" in this assay: inactive

Identify the outcome logged in this assay for the molecule shown: "CC(C)C1=CC2=C[C@H](O)[C@H]3C(C)(C)CCC[C@]3(C)C2=C(O)C1=O" active

Would you mind telling me which call this test gave CCOP(=O)(OCC)C(Cc1ccccc1)N=C(c1ccccc1)c1ccccc1 (centres undefined) ? active

Identify the outcome logged in this assay for the molecule shown: "N#CN=Nc1cc(Cl)c(N=NC#N)cc1Cl" inactive

Hi, do you know how "CC(=O)Nc1ccc(SC(C)=O)cc1" came out in this test? inactive

// param item: "Cc1[nH]c2ccccc2c1C(c1ccc(N)cc1)c1c(C)[nH]c2ccccc12" ; yields the recorded call inactive

Please share the test call associated with "CCCCCCc1cc(C(=O)OC/C(C)=N/NC(N)=O)c2ccccc2n1" . inactive

// outcome(item) with item = "O=C(COC(=O)c1cc(O)c(O)c(O)c1)c1ccc(-c2ccccc2)cc1" active

Recorded call for "OC1CSCCCSCCSCCCSC1" ? inactive

In this assay, the call recorded for "CSC(=S)Nc1cccc(C)n1" was what? inactive

Please indicate how the test categorized "CC1=NN(c2cccc(Cl)c2)C(=O)C1" . inactive

# outcome recorded in this test, key = "Cc1cc(N=Nc2ccc(S(=O)(=O)[O-])cc2)cc(C(=O)[O-])c1[O-].NC1CCCCC1N.[Na+].[Pt+4]" active

Test call, this molecule: "O=[N+]([O-])c1ccc(=S)[nH]c1" active

Please state the recorded outcome for this molecule: "Cc1c(Cl)ccc2c1S(=O)(=O)c1cccc(Cl)c1-2" inactive

// return assay outcome for CCC(C(=O)O)C1=C(c2ccccc2)CCc2ccccc21 (centres undefined) inactive

GET /call?item= "COC(=O)c1ccc([N+](=O)[O-])c(O)c1" returns the recorded outcome of this test. active

Please share the test call associated with Clc1ccc(SC(/C=C/NNC2=NC(c3ccccc3)C(c3ccccc3)=NN2)c2ccccc2)cc1 (centres undefined) . inactive

// return assay outcome for "O=[N+]([O-])c1cccc([N+](=O)[O-])c1S(=O)(=O)c1ccccc1" active
